Quick list: growth per entry.
test system: HOP-62 NSCLC; experiment: NCI-60 one-dose screen, 48 h (100 = growth as untreated, 0 = no growth, -100 = all killed); conditions: 10 µM unless noted
This is part of a sample that, as a whole, favours compounds with a hit. Of some 83,000 tested, about 20% had one in any assay.
Numeric answer only, unit % assumed.

[
  {
    "compound": "COc1cc2c(=O)n(CC3CCCCC3)c3c4cc[nH]c4ncc3c2cc1OC",
    "growth / %": 19.2
  },
  {
    "compound": "CCOC(=O)c1cnc2ccc(OC)cc2c1Nc1cccc(S(=O)(=O)NC)c1",
    "growth / %": 99.6
  },
  {
    "compound": "CCCN(CCC)CN(CCC)CCC",
    "growth / %": 113
  },
  {
    "compound": "CNC(=O)c1cc(Oc2ccc3nc(NC(=O)Nc4ccc(CN5CCOCC5)c(C(F)(F)F)c4)sc3c2)ccn1",
    "growth / %": 44.6
  },
  {
    "compound": "N#CC1=C(N)Oc2c(ccc3ccccc23)C1c1cccs1 (centres undefined)",
    "growth / %": 25.5
  }
]

For this compound ( "O=C1C[C@H](Sc2nc(-c3ccc(F)cc3)cc(C(F)(F)F)n2)[C@H]2CO[C@@H]1O2" ), measured growth is 104

For this compound ( CCCCCCCCCCCCN1CCCC(C)C1 (centres undefined) ), measured growth is 89.1

For this compound ( "CC1=N/C(=C\c2cccc(Br)c2)C(=O)O1" ), measured growth is 92.8

For this compound ( "O=C([C@@H](COCc1ccccc1)N1C(=O)[C@@H](N2C(=O)OC[C@@H]2c2ccccc2)[C@H]1/C=C/c1ccccc1)N1CCC(CCN2CCCCC2)CC1" ), measured growth is 77.8

For this compound ( "O=S(=O)(NCCCNc1cc(-c2cn(-c3ccccc3)nc2-c2cccc(O)c2)ccn1)c1ccccc1" ), measured growth is 77.3

For this compound ( "COc1cc(-c2cnc3nonc3n2)c(OC)c2c1OCO2" ), measured growth is 101

For this compound ( C=C1CCC2C3(C)COC(C)(C)OC3CCC2(C)C1C/C=C1/C(=O)OCC1OC(C)=O (centres undefined) ), measured growth is 112

For this compound ( "Nc1ccc(Nc2nccc(-c3ccc4ccccc4c3)n2)cc1" ), measured growth is 44.2

For this compound ( "CC1(C)CC(=O)C(c2c(-c3ccccc3)[nH]c3[nH]c(=S)[nH]c(=O)c23)=C(O)C1" ), measured growth is 112

---

Quick list: growth per entry.
test system: OVCAR-3 ovarian; experiment: NCI-60 one-dose screen, 48 h (100 = growth as untreated, 0 = no growth, -100 = all killed); settings: 10 µM unless noted
About 83,000 compounds went through this panel and 20% of them were active in at least one assay; those are over-represented in the sample as a whole.
Numeric answer only, unit % assumed.

[
  {
    "compound": "CC1=C(NCCN2CCCC2)C(=O)c2c(OCc3ccc(F)c(Cl)c3)cccc2C1=O",
    "growth / %": 84
  }
]

For this compound ( "C/C(Cc1ccc(Cl)cc1)=C(\c1ccc(OCCN2CCCCCC2)cc1)c1ccc(OC(=O)C2CCCCC2)cc1" ), measured growth is 71.8

For this compound ( "O=C(Nc1ccc(F)cc1)Nc1ccc(CCO)cc1" ), measured growth is 117

For this compound ( "CCN(CC)c1ccc(CNc2cc(C)nc3ccc(OC)cc23)cc1" ), measured growth is 51.6

For this compound ( COc1cc(C2C(C(=O)c3cccs3)=C(O)C(=O)N2CCN2CCOCC2)cc(OC)c1OC (stereo unspecified) ), measured growth is 102

For this compound ( CS(CCCCN=C=S)=NC(=O)c1c(F)c(F)c(F)c(F)c1F (stereo unspecified) ), measured growth is 57.3

For this compound ( "Cc1nc2nc(N)nc(N)c2nc1C" ), measured growth is 98

For this compound ( "Cc1ccc(S(=O)(=O)N(CCc2ccc(Cl)cc2)S(=O)(=O)c2ccc(C)cc2)cc1" ), measured growth is 95

For this compound ( "O=C1c2c[n+](Cc3ccccc3)ccc2-c2nc3ccccc3c3ccnc1c23" ), measured growth is -66.8

For this compound ( COCCOC(=O)C1=C(C)NC(=S)NC1c1ccc2c(c1)OCO2 (stereo unspecified) ), measured growth is 111

For this compound ( "COc1ccc(-c2cc(-c3cccnc3)nc3sc4c(=O)n(-c5ccc(C)cc5)cnc4c23)cc1OC" ), measured growth is 98.8
